# System: 786-0
# assay protocol: NCI tumour cell line growth inhibition, 48 h
Active and inactive are the calls of the source. Cut-off read from the data, not from the text of the source: active = GI50 up to about 1.1 µM and inactive = higher.
Entry note: the call must match one of active, inactive

Illustrative cases are given below, each with its answer.
COc1cc(C2c3cc4c(cc3OC(NNC(N)=S)C2C)OCO4)cc(OC)c1OC (configuration not stated) ... active
COC(=O)c1c(C)c2c(c(C)c1C(=O)OC)-c1c(C)ccc3ccc(C)c-2c13 ... inactive
O=C(c1ccc2ccccc2c1)N(Cc1cccnc1)C(=S)N(Cc1cccnc1)C(=O)c1ccc2ccccc2c1 ... inactive
CC(NNC(=O)c1ccncc1)c1ccc(Cl)cc1Cl (configuration not stated) ... inactive

Query: Call for entry O=C(OCC1OC(n2nc(Cn3nnc(-c4cccnc4)n3)n(-c3cccc4ccccc34)c2=S)C(OC(=O)c2ccccc2)C1OC(=O)c1ccccc1)c1ccccc1 (configuration not stated) :
Result: inactive

Query: Per the assay record, what outcome was assigned to COC(=O)C(=O)C(C(=O)OC)C(=O)C(=O)Nc1c(C)cccc1C (configuration not stated) ?
Result: inactive

Query: Per the records of this test, what outcome belongs to CCn1c(=N)sc2nc3ccccc3n2c1=O ?
Result: inactive

Query: Name the outcome recorded for COc1ccc2c(c1)/C(=C\c1c(C)nc3n1CCS3)C(=O)N2 in the assay.
Result: inactive

Query: Which outcome was entered for the compound c1ccc(OCc2nnc(CCCCCCCCc3nnc(COc4ccccc4)o3)o2)cc1 in this test?
Result: inactive

Query: Which outcome was entered for the compound CCN(CC)CCNc1c2ccccc2nc2cccc([N+](=O)[O-])c12 in this test?
Result: active

Where these numbers come from: ChEMBL document CHEMBL1201862
